The reported numbers originate from ChEMBL document CHEMBL1649182.

target: Penicillin-binding protein 2B (Streptococcus pneumoniae serotype 4 (strain ATCC BAA-334 / TIGR4), UniProt P0A3M5); assay: Displacement of Biocillin FL from Streptococcus pneumoniae 1077 PBP2B
Sequence (P0A3M5 whole entry): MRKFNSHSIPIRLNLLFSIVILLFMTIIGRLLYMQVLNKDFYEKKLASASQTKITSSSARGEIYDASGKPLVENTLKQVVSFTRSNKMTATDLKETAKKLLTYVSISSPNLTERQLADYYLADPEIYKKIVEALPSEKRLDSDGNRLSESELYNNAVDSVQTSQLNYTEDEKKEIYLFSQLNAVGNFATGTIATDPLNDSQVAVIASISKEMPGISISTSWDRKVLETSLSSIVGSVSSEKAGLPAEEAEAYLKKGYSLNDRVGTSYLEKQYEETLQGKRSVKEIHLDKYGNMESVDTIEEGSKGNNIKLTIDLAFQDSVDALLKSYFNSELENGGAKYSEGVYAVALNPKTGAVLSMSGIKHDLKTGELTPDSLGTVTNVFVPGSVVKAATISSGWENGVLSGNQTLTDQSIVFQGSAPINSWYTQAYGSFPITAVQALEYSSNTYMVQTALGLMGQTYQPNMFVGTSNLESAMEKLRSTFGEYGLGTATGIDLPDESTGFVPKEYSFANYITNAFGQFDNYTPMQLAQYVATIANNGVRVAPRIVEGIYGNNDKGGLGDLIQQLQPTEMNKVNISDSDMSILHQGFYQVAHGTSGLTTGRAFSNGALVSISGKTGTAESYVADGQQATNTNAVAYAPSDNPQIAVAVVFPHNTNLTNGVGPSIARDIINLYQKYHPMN
pIC50: −log10 of the molar value.
Lab note: compare pIC50 against 7. Equal or greater, write 1. Smaller, write -1.

Say whether "CO/N=C(\C(=O)N[C@@H]1C(=O)N2C(C(=O)O)=C(COC(N)=O)CS[C@H]12)c1ccco1" shows pIC50 of 7 or more.
-1

Say whether "C[C@@H](O)[C@H]1C(=O)N2C(C(=O)O)=C([C@H]3CCCO3)S[C@H]12" shows pIC50 of 7 or more.
1

---

assay: Displacement of Biocillin FL from Streptococcus pneumoniae 2527 PBP2A
Binarize IC50 at 0.02 µg/mL; below is Met, at or above is Not met.

Confirm or reject: IC50 of CC1(C)S[C@@H]2[C@H](NC(=O)[C@H](N)c3ccc(O)cc3)C(=O)N2[C@H]1C(=O)O [AMOXICILLIN] lies strictly below 0.02 µg/mL
Not met

Confirm or reject: IC50 of CO/N=C(\C(=O)N[C@@H]1C(=O)N2C(C(=O)O)=C(COC(N)=O)CS[C@H]12)c1ccco1 [CEFUROXIME] lies strictly below 0.02 µg/mL
Met

Confirm or reject: IC50 of C[C@@H](O)[C@H]1C(=O)N2C(C(=O)O)=C([C@H]3CCCO3)S[C@H]12 [FAROPENEM] lies strictly below 0.02 µg/mL
Not met

Confirm or reject: IC50 of C[C@@H](O)[C@H]1C(=O)N2C(C(=O)O)=C(SCCNC=N)C[C@H]12 [IMIPENEM ANHYDROUS] lies strictly below 0.02 µg/mL
Not met

Confirm or reject: IC50 of CC1(C)S[C@@H]2[C@H](NC(=O)Cc3ccccc3)C(=O)N2[C@H]1C(=O)O [PENICILLIN G] lies strictly below 0.02 µg/mL
Not met

---

experiment: Displacement of Biocillin FL from Streptococcus pneumoniae 3413 PBP1B
endpoint: IC50 (µg/mL)
Numbers only; they are read as µg/mL.

"CO/N=C(\C(=O)N[C@@H]1C(=O)N2C(C(=O)O)=C(COC(N)=O)CS[C@H]12)c1ccco1" yielded IC50 of 0.032

"C[C@@H](O)[C@H]1C(=O)N2C(C(=O)O)=C([C@H]3CCCO3)S[C@H]12" yielded IC50 of 0.019

"CC1(C)S[C@@H]2[C@H](NC(=O)Cc3ccccc3)C(=O)N2[C@H]1C(=O)O" yielded IC50 of 0.205

C[C@@H](O)[C@H]1C(=O)N2C(C(=O)O)=C(SCCNC=N)C[C@H]12 [IMIPENEM ANHYDROUS] yielded IC50 of 0.316

"CC1(C)S[C@@H]2[C@H](NC(=O)[C@H](N)c3ccc(O)cc3)C(=O)N2[C@H]1C(=O)O" yielded IC50 of 0.035

---

test: Displacement of Biocillin FL from Streptococcus pneumoniae 3009 PBP3
endpoint: IC50 (µg/mL)
Numbers only; they are read as µg/mL.

"CC1(C)S[C@@H]2[C@H](NC(=O)Cc3ccccc3)C(=O)N2[C@H]1C(=O)O" yielded IC50 of 0.001

C[C@@H](O)[C@H]1C(=O)N2C(C(=O)O)=C(SCCNC=N)C[C@H]12 [IMIPENEM ANHYDROUS] yielded IC50 of 0.039

"CC1(C)S[C@@H]2[C@H](NC(=O)[C@H](N)c3ccc(O)cc3)C(=O)N2[C@H]1C(=O)O" yielded IC50 of 0.047

"CO/N=C(\C(=O)N[C@@H]1C(=O)N2C(C(=O)O)=C(COC(N)=O)CS[C@H]12)c1ccco1" yielded IC50 of 0.024

"C[C@@H](O)[C@H]1C(=O)N2C(C(=O)O)=C([C@H]3CCCO3)S[C@H]12" yielded IC50 of 0.006
